# Measurement description: Apparent permeability across apical to basolateral side in human Caco2 cells at 10 uM after 2 hrs by LC-MS/MS analysis
# Format: ADME, cell-based
# Measurement parameters: Caco-2
Endpoint label: Papp A→B at 2 h, 10 µM (×10⁻⁶ cm/s)
Field: numeric (×10⁻⁶ cm/s). Do not append units.

// query Look up Papp A→B at 2 h, 10 µM: `Cn1cnc(S(=O)(=O)N2CCS[C@H]2C(=O)O[C@@H](Cc2c(Cl)c[n+]([O-])cc2Cl)c2ccc(OC(F)F)c(OCC3CC3)c2)c1`
// result 0.22

// query Look up Papp A→B at 2 h, 10 µM: CN(C)C(=O)c1cccc(S(=O)(=O)N2CCCC[C@H]2C(=O)O[C@@H](Cc2c(Cl)c[n+]([O-])cc2Cl)c2ccc(OC(F)F)c(OCC3CC3)c2)c1 (relative stereo)
// result 21.7

// query Look up Papp A→B at 2 h, 10 µM: CNC(=O)c1cc(S(=O)(=O)N2CCS[C@H]2C(=O)O[C@@H](Cc2c(Cl)c[n+]([O-])cc2Cl)c2ccc(OC(F)F)c(OCC3CC3)c2)cn1C (relative stereo)
// result 1.26

// query Look up Papp A→B at 2 h, 10 µM: `CN(C)C(=O)c1cccc(S(=O)(=O)N2CSC[C@H]2C(=O)O[C@@H](Cc2c(Cl)c[n+]([O-])cc2Cl)c2ccc(OC(F)F)c(OCC3CC3)c2)c1`
// result 2.8

// query Look up Papp A→B at 2 h, 10 µM: `CN(C)C(=O)c1cccc(S(=O)(=O)N2CCS[C@H]2C(=O)O[C@@H](Cc2c(Cl)c[n+]([O-])cc2Cl)c2ccc(OC(F)F)c(OCC3CC3)c2)c1`
// result 0.42

// query Look up Papp A→B at 2 h, 10 µM: COc1ccc(S(=O)(=O)N2CCC[C@H]2C(=O)O[C@@H](Cc2c(Cl)c[n+]([O-])cc2Cl)c2ccc(OC(F)F)c(OCC3CC3)c2)cc1C(=O)N(C)C (relative stereo)
// result 0.5

// query Look up Papp A→B at 2 h, 10 µM: COc1ccc(S(=O)(=O)N2CCCC[C@H]2C(=O)O[C@@H](Cc2c(Cl)c[n+]([O-])cc2Cl)c2ccc(OC(F)F)c(OCC3CC3)c2)cc1C(=O)N(C)C (relative stereo)
// result 13.2

// query Look up Papp A→B at 2 h, 10 µM: COc1ccc(S(=O)(=O)N2CCS[C@H]2C(=O)O[C@@H](Cc2c(Cl)c[n+]([O-])cc2Cl)c2ccc(OC(F)F)c(OCC3CC3)c2)cc1C(=O)N(C)C (relative stereo)
// result 0.23

// query Look up Papp A→B at 2 h, 10 µM: COc1ccc(S(=O)(=O)N2CCS[C@H]2C(=O)O[C@@H](Cc2c(Cl)c[n+]([O-])cc2Cl)c2ccc(OC(F)F)c(OCC3CC3)c2)cc1OC (relative stereo)
// result 0.25

// query Look up Papp A→B at 2 h, 10 µM: CN(C)C(=O)c1cccc(S(=O)(=O)N2CCC[C@H]2C(=O)O[C@@H](Cc2c(Cl)c[n+]([O-])cc2Cl)c2ccc(OC(F)F)c(OCC3CC3)c2)c1 (relative stereo)
// result 0.48
